Cited source for all entries: patent US20220195015A1

Quick reference for EC50 among some binders
# MEASURED ON: SARS-CoV-2 RBD (wild type) (SARS-CoV-2, UniProt P0DTC2 319-539)
# EXPERIMENT NOTES: ELISA on coated RBD
REPORTED ENDPOINT: EC50

binder="C564 (antibody, V domains shown) VH: EVQLLESGGGLVQPGTSLRLSCAASGFTFSSYAMSWVRQAPGKGLEWVSAISSSGGSTYYADSVKGRFTISRDNSKNTLYLHMNSLRAEDTAVYYCATERIAVAGTRMYNWFDPWGQGTLVTVSS VL: DIQMTQSPSSLSASVGDRVTLTCRASQSISSYLNWYQQKPGKAPNLLIYAASSLQSGVPSRFSGSGSGTDFTLTISSLQPEDFATYYCQQSYSAPPWTFGQGTKVEIK" reported="0.0146 µg/mL"
binder="C213 (antibody, V domains shown) VH: EVQLVESGGGLVKPGGSLRLSCAASGFTFSSYSMNWVRQAPGKGLEWVSSISSSSSYIYYADSVKGRFTISRDNAKNSLYLQMNSLRAEDTAVYYCARVQVGARGWVDYWGQGTLVTVSS VL: NFMLTQPHSVSESPGKTVTISCTRSSGSIASNYVQWYQQRPGSAPTTVIYEDNERPSGVPDRFSGSIDSSSNSASLTISGLKTEDEADYYCQSYDRINWVFGGGTKLTVL" reported="0.00202 µg/mL"
binder="C073 (antibody, V domains shown) VH: QLQLQESGPGLVKPSETLSLTCTVSGASIPSSTSYWGWIRQPPGKGLEWIGSIYYTGSTYYNPSLKSRVTISVDTSKNHFSLILSSVTAADTAVYYCARRSITLAGRDCLDFWGQGTLVTVSS VL: DIQLTQSPSSLSASVGDRLTITCRASQSITTSLNWYQQKPGKAPKLLIYAASSLQSGVPSRFSGSGSGTDFTLAISSLQPEDFATYYCQQSYIPLLTFGGGTKVDIK" reported="0.0206 µg/mL"
